test.system: RASA1-N SH2 domain (Homo sapiens)
Sequence (P20936 181-272 limits assumed): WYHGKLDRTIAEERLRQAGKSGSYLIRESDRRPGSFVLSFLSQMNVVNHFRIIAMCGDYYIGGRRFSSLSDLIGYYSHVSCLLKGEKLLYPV
Residues, ends and D or L forms follow the SMILES beside them.
measurement.label: pKd
pKd field: float, defined as -log10 of concentration (mol/L).

Input: Any idea what its pKd is? The compound is CC(C)C[C@H](NC(=O)[C@H](CCCNC(=N)N)NC(=O)[C@H](C)NC(=O)[C@H](Cc1ccc(OP(=O)(O)O)cc1)NC(=O)[C@H](Cc1c[nH]cn1)NC(=O)[C@@H](NC(=O)[C@H](Cc1c[nH]cn1)NC(=O)[C@@H]1CCCN1)C(C)C)C(=O)N[C@@H](CCCCN)C(=O)N[C@H](C(=O)N[C@@H](CC(C)C)C(=O)N[C@@H](CCCNC(=N)N)C(=O)N[C@@H](CC(=O)O)C(=O)O)[C@@H](C)O [ErbB3pY1307] (HELM PEPTIDE1{P.H.V.H.[O=C([C@H](Cc1ccc(OP(=O)(O)O)cc1)N[*:1])[*:2]].A.R.L.K.T.L.R.D}$$$$V2.0)
Output: 5.73

Input: Any idea what its pKd is? The compound is CSCC[C@H](NC(=O)[C@H](CCC(=O)O)NC(=O)[C@H](CCC(=O)O)NC(=O)[C@H](Cc1ccc(OP(=O)(O)O)cc1)NC(=O)CNC(=O)[C@H](CCC(N)=O)NC(=O)[C@H](CCC(=O)O)NC(=O)[C@@H](N)CO)C(=O)N[C@@H](CCCNC(=N)N)C(=O)N[C@@H](C)C(=O)N[C@@H](Cc1ccccc1)C(=O)N[C@@H](CCC(N)=O)C(=O)N[C@@H](CC(=O)O)C(=O)O [ErbB3 1289 13-mer] (HELM PEPTIDE1{S.E.Q.G.[O=C([C@H](Cc1ccc(OP(=O)(O)O)cc1)N[*:1])[*:2]].E.E.M.R.A.F.Q.D}$$$$V2.0)
Output: 5.05

====

test.system: PIK3R2-N SH2 domain (Homo sapiens)
Sequence (O00459 330-425 limits assumed): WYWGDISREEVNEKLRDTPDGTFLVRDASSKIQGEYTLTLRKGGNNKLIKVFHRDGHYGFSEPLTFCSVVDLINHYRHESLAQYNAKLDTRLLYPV
Residues, ends and D or L forms follow the SMILES beside them.
measurement.label: pKd
pKd field: float, defined as -log10 of concentration (mol/L).

Input: Find pKd (PIK3R2-N SH2 domain (Homo sapiens)) for the entry CC(C)[C@H](NC(=O)[C@H](CC(=O)O)NC(=O)[C@@H]1CCCN1C(=O)[C@H](CCC(N)=O)NC(=O)[C@H](CC(N)=O)NC(=O)[C@@H](NC(=O)[C@H](Cc1ccc(OP(=O)(O)O)cc1)NC(=O)[C@H](CCC(=O)O)NC(=O)[C@@H]1CCCN1C(=O)[C@H](CCC(N)=O)NC(=O)[C@@H]1CCCN1)C(C)C)C(=O)N[C@@H](CCCNC(=N)N)C(=O)N[C@@H](CC(=O)O)C(=O)O [ErbB2 1139 13-mer] (HELM PEPTIDE1{P.Q.P.E.[O=C([C@H](Cc1ccc(OP(=O)(O)O)cc1)N[*:1])[*:2]].V.N.Q.P.D.V.R.D}$$$$V2.0)
Output: 5.66

====

test.system: PLCG1-NC tandem SH2 domains (Homo sapiens, UniProt P19174)
Construct: the tandem protein was included in our analysis with all internal amino acids linking the domains; 6X His; thioredoxin; made in house; host or cells: E. coli BL21(DE3)pLysS
Sequence (P19174 550-756 limits assumed): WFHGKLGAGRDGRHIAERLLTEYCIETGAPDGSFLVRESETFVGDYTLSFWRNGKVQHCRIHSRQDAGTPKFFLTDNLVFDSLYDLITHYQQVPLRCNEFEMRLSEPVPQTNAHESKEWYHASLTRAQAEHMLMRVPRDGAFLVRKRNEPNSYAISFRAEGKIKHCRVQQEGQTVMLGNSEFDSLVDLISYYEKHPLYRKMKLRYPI
test.protocol: FP saturation binding assay
run.parameters: Protein PLCG1-NC; FP saturation binding, high-confidence ErbB interactions; mean over replicate hits
Residues, ends and D or L forms follow the SMILES beside them.
measurement.label: pKd
pKd field: float, defined as -log10 of concentration (mol/L).

Input: Any idea what its pKd is? The compound is NCCCC[C@H](NC(=O)[C@@H]1CCCN1C(=O)[C@H](Cc1ccccc1)NC(=O)[C@H](Cc1ccccc1)NC(=O)[C@H](CC(=O)O)NC(=O)[C@H](CCC(N)=O)NC(=O)[C@H](CCC(N)=O)NC(=O)[C@H](Cc1ccc(OP(=O)(O)O)cc1)NC(=O)[C@H](CC(=O)O)NC(=O)[C@@H]1CCCN1C(=O)[C@H](CC(N)=O)NC(=O)[C@@H](N)CC(=O)O)C(=O)N[C@@H](CC(=O)O)C(=O)O [ErbB1 1172 13-mer] (HELM PEPTIDE1{D.N.P.D.[O=C([C@H](Cc1ccc(OP(=O)(O)O)cc1)N[*:1])[*:2]].Q.Q.D.F.F.P.K.D}$$$$V2.0)
Output: 5.11
